Data origin: ChEMBL document CHEMBL1146637

method.description: Inhibitory activity against Escherichia coli Topoisomerase IV in relaxation assay
Format: functional
property: IC50 (µM)
Give bare numbers, in µM.

Returns the measured IC50 for the input compound. Input: "CC(=O)NC[C@H]1CN(c2ccc(N3CCN(c4nc5c(cc4F)c(=O)c(C(=O)O)cn5C4CC4)CC3)c(F)c2)C(=O)O1"
10

Moving on to the next compound: "CC(=O)NC[C@H]1CN(c2ccc(O[C@H]3CCN(c4nc5c(cc4F)c(=O)c(C(=O)O)cn5C4CC4)C3)c(F)c2)C(=O)O1"
3

Moving on to the next compound: "O=C(O)c1cn(C2CC2)c2cc(N3CCNCC3)c(F)cc2c1=O"
2.5

Field: next compound
Returns the measured IC50 for the input compound. Input: "CC(=O)NC[C@H]1CN(c2ccc(OC3CCN(c4nc5c(cc4F)c(=O)c(C(=O)O)cn5C4CC4)CC3)c(F)c2)C(=O)O1"
5
